- target-or-test-system: AMPK alpha2/beta1/gamma1 (Homo sapiens, UniProt P54619+P54646+Q9Y478)
- Sequence (P54646 whole entry): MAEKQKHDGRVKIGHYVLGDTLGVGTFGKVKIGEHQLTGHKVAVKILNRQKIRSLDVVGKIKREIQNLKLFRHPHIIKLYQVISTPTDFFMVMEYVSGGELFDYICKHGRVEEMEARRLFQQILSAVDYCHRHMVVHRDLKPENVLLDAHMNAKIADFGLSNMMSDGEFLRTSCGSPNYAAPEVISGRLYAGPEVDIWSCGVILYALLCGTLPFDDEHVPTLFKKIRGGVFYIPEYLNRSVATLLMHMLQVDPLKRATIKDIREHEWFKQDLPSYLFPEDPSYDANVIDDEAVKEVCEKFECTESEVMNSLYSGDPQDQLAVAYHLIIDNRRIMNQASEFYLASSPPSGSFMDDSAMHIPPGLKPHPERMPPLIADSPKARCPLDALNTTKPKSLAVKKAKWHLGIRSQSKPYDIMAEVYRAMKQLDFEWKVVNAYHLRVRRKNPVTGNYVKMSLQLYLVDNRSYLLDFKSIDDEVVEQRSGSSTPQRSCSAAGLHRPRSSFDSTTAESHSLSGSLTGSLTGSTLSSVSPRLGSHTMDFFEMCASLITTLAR
- Sequence (P54619 whole entry): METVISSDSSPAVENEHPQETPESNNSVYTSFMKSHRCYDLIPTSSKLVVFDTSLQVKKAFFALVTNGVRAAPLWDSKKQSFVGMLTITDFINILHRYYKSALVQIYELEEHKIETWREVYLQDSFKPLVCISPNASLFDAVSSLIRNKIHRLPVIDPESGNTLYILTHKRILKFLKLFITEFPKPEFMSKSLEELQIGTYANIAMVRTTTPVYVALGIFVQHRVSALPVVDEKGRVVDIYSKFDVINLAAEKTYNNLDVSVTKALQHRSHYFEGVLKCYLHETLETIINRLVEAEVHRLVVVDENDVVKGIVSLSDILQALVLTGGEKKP
- Sequence (Q9Y478 whole entry): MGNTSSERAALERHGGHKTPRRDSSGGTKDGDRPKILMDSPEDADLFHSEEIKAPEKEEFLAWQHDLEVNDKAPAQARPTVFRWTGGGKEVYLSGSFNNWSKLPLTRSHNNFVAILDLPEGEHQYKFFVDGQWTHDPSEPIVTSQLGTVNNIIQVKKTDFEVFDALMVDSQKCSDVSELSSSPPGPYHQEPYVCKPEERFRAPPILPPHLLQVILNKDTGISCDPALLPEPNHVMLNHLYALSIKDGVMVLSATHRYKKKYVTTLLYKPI
- test-name: Activation of recombinant AMPKalpha2beta1gamma1 (unknown origin) expressed in Escherichia coli BL21 in presence of CaMKKbeta (unknown origin) incubated for 45 mins in presence of substrate-1 peptide and ATP by HTRF assay
pEC50: −log10 of the molar value.
measured-attribute: pEC50

CC(C)=CCC[C@](C)(O[C@@H]1O[C@H](CO)[C@@H](O)[C@H](O)[C@H]1O)[C@H]1CC[C@]2(C)[C@@H]1[C@H](O)C[C@@H]1[C@@]3(C)CC[C@H](O[C@@H]4O[C@H](CO)[C@@H](O)[C@H](O)[C@H]4O[C@@H]4O[C@H](COC(=O)CC(=O)O)[C@@H](O)[C@H](O)[C@H]4O)C(C)(C)[C@@H]3CC[C@]12C	5.55 to 7.77
CC(C)=CCC[C@](C)(O[C@@H]1O[C@H](CO)[C@@H](O)[C@H](O)[C@H]1O)[C@H]1CC[C@]2(C)[C@@H]1[C@H](O)C[C@@H]1[C@@]3(C)CC[C@H](O[C@@H]4O[C@H](CO)[C@@H](O)[C@H](O)[C@H]4O[C@@H]4O[C@H](CO)[C@@H](OC(=O)CC(=O)O)[C@H](O)[C@H]4O)C(C)(C)[C@@H]3CC[C@]12C	5.55 to 7.77

# context switch: different molecule, same pEC50
Quick one: pEC50 for CC(C)=CCC[C@](C)(O[C@@H]1O[C@H](CO[C@@H]2O[C@H](CO)[C@@H](O)[C@H](O)[C@H]2O)[C@@H](O)[C@H](O)[C@H]1O)[C@H]1CC[C@]2(C)[C@@H]1[C@H](O)C[C@@H]1[C@@]3(C)CC[C@H](O[C@@H]4O[C@H](CO)[C@@H](O)[C@H](O)[C@H]4O[C@@H]4O[C@H](COC(=O)CC(=O)O)[C@@H](O)[C@H](O)[C@H]4O)C(C)(C)[C@@H]3CC[C@]12C ?
5.55 to 7.77

====

- target-or-test-system: AMPK alpha2/beta1/gamma1 (Homo sapiens) (UniProt P54646+P54619+Q9Y478)
- Sequence (P54619 whole entry partner): as the sequence (P54619 whole entry) above
- Sequence (P54646 whole entry): as the sequence (P54646 whole entry) above
- Sequence (Q9Y478 2-270 partner limits assumed): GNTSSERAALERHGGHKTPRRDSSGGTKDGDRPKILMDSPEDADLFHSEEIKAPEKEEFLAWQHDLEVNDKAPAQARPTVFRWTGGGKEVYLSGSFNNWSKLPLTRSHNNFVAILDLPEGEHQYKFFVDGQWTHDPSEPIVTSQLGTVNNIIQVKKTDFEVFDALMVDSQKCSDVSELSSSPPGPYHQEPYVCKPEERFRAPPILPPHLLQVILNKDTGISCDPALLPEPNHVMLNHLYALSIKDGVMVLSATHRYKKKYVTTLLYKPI
- test-name: Activation of recombinant AMPKalpha2beta1gamma1 (unknown origin) expressed in Escherichia coli BL21 in presence of CaMKKbeta (unknown origin) incubated for 45 mins in presence of substrate-1 peptide and ATP by HTRF assay relative to untreated control
measured-attribute: fold change (FC)

CC(C)=CCC[C@](C)(O[C@@H]1O[C@H](CO)[C@@H](O)[C@H](O)[C@H]1O)[C@H]1CC[C@]2(C)[C@@H]1[C@H](O)C[C@@H]1[C@@]3(C)CC[C@H](O[C@@H]4O[C@H](CO)[C@@H](O)[C@H](O)[C@H]4O[C@@H]4O[C@H](CO)[C@@H](OC(=O)CC(=O)O)[C@H](O)[C@H]4O)C(C)(C)[C@@H]3CC[C@]12C	1.7 to 4.7

Quick one: fold change (FC) for CC(C)=CCC[C@](C)(O[C@@H]1O[C@H](CO[C@@H]2O[C@@H](CO)[C@H](O)[C@H]2O)[C@@H](O)[C@H](O)[C@H]1O)[C@H]1CC[C@]2(C)[C@@H]1[C@H](O)C[C@@H]1[C@@]3(C)CC[C@H](O[C@@H]4O[C@H](CO)[C@@H](O)[C@H](O)[C@H]4O[C@@H]4O[C@H](COC(=O)CC(=O)O)[C@@H](O)[C@H](O)[C@H]4O)C(C)(C)[C@@H]3CC[C@]12C ?
1.7 to 4.7

Another: CC(C)=CCC[C@](C)(O[C@@H]1O[C@H](CO)[C@@H](O)[C@H](O)[C@H]1O)[C@H]1CC[C@]2(C)[C@@H]1[C@H](O)C[C@@H]1[C@@]3(C)CC[C@H](O[C@@H]4O[C@H](CO)[C@@H](O)[C@H](O)[C@H]4O[C@@H]4O[C@H](COC(=O)CC(=O)O)[C@@H](O)[C@H](O)[C@H]4O)C(C)(C)[C@@H]3CC[C@]12C
1.7 to 4.7

Data provenance is ChEMBL document CHEMBL4177549.
